# Lookup of reported Relative value keyed by entry
# Species on record: Rattus norvegicus
# test name: Tested for its effect on the wound healing in rats at 7th postoperative day by measuring tensile strength of skin strips from the wound segments; value relative to control(100)
# Assay type: functional

{"molecule": "COCOC(=O)[C@]12CC[C@@H](C)[C@H](C)C1C1=CCC3[C@@]4(C)C[C@@H](OC(C)=O)[C@H](OC(C)=O)[C@@](C)(COC(C)=O)C4CC[C@@]3(C)[C@]1(C)CC2 (stereo partly drawn)", "Relative value": 145}
{"molecule": "CCOCOC(=O)[C@]12CC[C@@H](C)[C@H](C)C1C1=CCC3[C@@]4(C)C[C@@H](O)[C@H](O)[C@@](C)(CO)C4CC[C@@]3(C)[C@]1(C)CC2 (stereo partly drawn)", "Relative value": 166}
{"molecule": "CC(=O)OC[C@@]1(C)C2CC[C@]3(C)C(CC=C4C5[C@@H](C)[C@H](C)CC[C@]5(C(=O)OC5CCCCO5)CC[C@]43C)[C@@]2(C)C[C@@H](OC(C)=O)[C@@H]1OC(C)=O (stereo partly drawn)", "Relative value": 173}

These entries and their values trace back to ChEMBL document CHEMBL1128947.
